All values here come from patent US20140309210A1.

Molecular target: purified ITK (Invitrogen PV3875) (Homo sapiens, UniProt Q08881)
Construct: purchased Invitrogen PV3875
Sequence (Q08881 whole entry): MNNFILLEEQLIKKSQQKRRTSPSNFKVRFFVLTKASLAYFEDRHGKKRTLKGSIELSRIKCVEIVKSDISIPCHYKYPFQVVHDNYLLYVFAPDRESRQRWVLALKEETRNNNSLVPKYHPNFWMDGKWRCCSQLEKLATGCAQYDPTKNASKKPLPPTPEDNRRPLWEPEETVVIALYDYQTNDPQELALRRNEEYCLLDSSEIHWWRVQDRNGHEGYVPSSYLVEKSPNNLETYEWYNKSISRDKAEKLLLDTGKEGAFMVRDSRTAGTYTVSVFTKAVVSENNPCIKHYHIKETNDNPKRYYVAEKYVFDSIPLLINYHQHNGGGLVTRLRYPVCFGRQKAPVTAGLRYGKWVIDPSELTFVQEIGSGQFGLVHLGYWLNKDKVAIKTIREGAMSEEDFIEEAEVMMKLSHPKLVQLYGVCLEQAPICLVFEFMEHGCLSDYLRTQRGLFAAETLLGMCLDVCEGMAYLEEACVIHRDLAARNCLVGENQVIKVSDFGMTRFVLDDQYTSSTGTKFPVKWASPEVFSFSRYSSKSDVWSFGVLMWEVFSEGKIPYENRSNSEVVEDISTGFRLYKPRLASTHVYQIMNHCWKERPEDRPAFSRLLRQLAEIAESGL
Experiment: ITK peptide phosphorylation assay (Caliper LabChip or LCMS)
Assay type: biochemical
Settings: Table 1, Examples 141-279
pKi: −log10 of the molar value.
Observation type: pKi

Look over these answered cases.
// query # returns recorded pKi (system: purified ITK (Invitrogen PV3875) (Homo sapiens, UniProt Q08881)) for COc1cncc(-c2ccc3c(C(=O)Nc4cnn(C(CN5CCN(C)CC5)c5cccnc5)c4)n[nH]c3c2)c1 (centres unmarked) [Example 232]
// result 7.50

// query # returns recorded pKi (system: purified ITK (Invitrogen PV3875) (Homo sapiens, UniProt Q08881)) for O=C(Nc1cnn(Cc2ccccn2)c1)c1n[nH]c2cc(-c3cn[nH]c3)ccc12
// result 8.53

// query # returns recorded pKi (system: purified ITK (Invitrogen PV3875) (Homo sapiens, UniProt Q08881)) for N#Cc1cccc(Cn2cc(NC(=O)c3n[nH]c4cc(-c5cnco5)ccc34)cn2)c1
// result 8.69

// query # returns recorded pKi (system: purified ITK (Invitrogen PV3875) (Homo sapiens, UniProt Q08881)) for CS(=O)(=O)CCC(c1ccccc1)n1cc(NC(=O)c2n[nH]c3ccccc23)cn1 (centres unmarked)
// result 6.94

[A] CC(C)(O)Cn1cc(NC(=O)c2n[nH]c3cc(-c4cn[nH]c4)ccc23)cn1
[B] N#Cc1cccc(Cn2cc(NC(=O)c3n[nH]c4cc(C(F)(F)F)ccc34)cn2)c1
[C] O=C(Nc1cn[nH]c1)c1n[nH]c2cc(-c3cn[nH]c3)ccc12
[D] CCC(c1ccccc1)n1cc(NC(=O)c2n[nH]c3cc(-c4cncc(OC)c4)ccc23)cn1 (centres unmarked) [Example 211]
// query Thanks in advance: please rank these 4 entries by pKi, highest to lowest. Rank the items, then write their labels in that order.
// result A, C, D, B
(A: 8.06, C: 7.67, D: 7.27, B: 6.99)

----------
Target: purified ITK (Invitrogen PV3875) (Homo sapiens, UniProt Q08881)
Construct: purchased Invitrogen PV3875
Experiment: ITK peptide phosphorylation assay (Caliper LabChip or LCMS)
Assay type: biochemical
Conditions: Table 1, Examples 141-279
Excerpt: The ability of purified ITK (Invitrogen PV3875) to catalyze peptide phosphorylation is monitored using a Caliper LabChip 3000 microfluidic unit (Caliper assay) or by liquid chromatography-mass spectrometry (LCMS) using a Waters Acquity system (LCMS assay). […] Non-phosphorylated substrate and phosphorylated product peptides are separated and quantified using a Caliper LabChip 3000 instrument. […]
pKi: −log10 of the molar value.
Observation type: pKi

Look over these answered cases.
// query # returns recorded pKi (system: purified ITK (Invitrogen PV3875) (Homo sapiens, UniProt Q08881)) for N#Cc1cccc(Cn2cc(NC(=O)c3n[nH]c4ccc(NC5CCNC5)cc34)cn2)c1 (centres unmarked) [Example 183]
// result 8.12

// query # returns recorded pKi (system: purified ITK (Invitrogen PV3875) (Homo sapiens, UniProt Q08881)) for N#Cc1cccc(Cn2cc(NC(=O)c3n[nH]c4ccc(C5(CO)CC5)cc34)cn2)c1 [Example 193]
// result 7.58

// query # returns recorded pKi (system: purified ITK (Invitrogen PV3875) (Homo sapiens, UniProt Q08881)) for Cn1nc(C(F)(F)F)cc1-c1ccc2c(C(=O)Nc3cnn(Cc4cccc(C#N)c4)c3)n[nH]c2c1 [Example 198]
// result 6.74

[P] COc1cncc(-c2ccc3c(C(=O)Nc4cnn(C(CN(C)C)c5cccnc5)c4)n[nH]c3c2)c1 (centres unmarked) [Example 233]
[Q] Cc1cncc(-c2ccc3c(C(=O)Nc4cnn(Cc5cccc(C#N)c5)c4)n[nH]c3c2)c1 [Example 199]
// query Lab log: flag the item ( P or Q ) with the smaller pKi figure. // return label of chosen record
// result P
